molecular target: huCD4_1–32-YFP Q15A (Homo sapiens, UniProt P01730, Q15A); assay: CADA inhibition of huCD4_1–32-YFP secretion; format: cell-based; conditions: read-out: Secreted YFP IC50 (μM) Mean, HEK293T, CADA 48h
measured-endpoint: IC50

input: State the recorded IC50 for this entry: C=C1CN(S(=O)(=O)c2ccc(C)cc2)CCCN(Cc2ccccc2)CCCN(S(=O)(=O)c2ccc(C)cc2)C1 [CADA, Cyclotriazadisulfonamide]
output: > 50 µM

* * *

target: FL huCD4 A21V (Homo sapiens, UniProt P01730, A21V); test: CADA down-modulation of cellular huCD4; format: cell-based; settings: read-out: Cellular huCD4 IC50 (μM) Mean, HEK293T, CADA 48h
measured-endpoint: IC50 (µM)
One number for each entry, in µM.

input: State the recorded IC50 for this entry: C=C1CN(S(=O)(=O)c2ccc(C)cc2)CCCN(Cc2ccccc2)CCCN(S(=O)(=O)c2ccc(C)cc2)C1 [CADA, Cyclotriazadisulfonamide]
output: 0.87
